- assay.explanation: Toxicity in African green monkey Vero cells assessed as reduction in cell viability incubated for 72 hrs by MTT assay
- Format: cell-based
- measurement.context: chlorocebus sabaeus, read-out: TD50
Measured CC50 at 72 h values are reported for all entries that follow.
Supply the numeric figure in µg/mL, leaving out any unit text.

COc1ccc(Cc2cc(N)nc(OC)n2)cc1
50
COc1ccc(C(Cl)(Cl)c2cc(Cl)nc(OC)n2)cc1
12.5

Q) Could you tell me which CC50 at 72 h is on file for "CCCCOc1nc(Cc2ccc(OC)cc2)cc(=O)[nH]1" ?
A) 100

----------
- Tested on: Influenza B virus
- assay.explanation: Antiviral activity against Influenza B virus infected in dog MDCK cells assessed as reduction in cytopathic effect measured after 3 days by CPE assay
- Assay type: functional, organism-based
- measurement.context: 72 h
test.readout: EC50

Q) Could you tell me which EC50 is on file for "COc1ccc(NC(=O)CSc2nc(Cc3cccc4ccccc34)c(C)c(=O)[nH]2)cc1" ?
A) > 45 µM
